Attribution: paper PMC5540273

Test system: WNK3
condition.notes: concentration: 1 μM, replicates: in singlicate; n = 1;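 also: KINOMEscan kinase panel screen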
parameter.measured: %Inh (%)

{"smiles.data": "Cc1ccccc1-c1cc(-c2c[nH]nc2-c2ccccn2)ccn1", "parameter.measured": "%Inh", "recorded.value": 24}
{"smiles.data": "O=c1cc(N2CCOCC2)nc2n(Cc3cccc(Cl)c3Cl)c3ccccc3n12", "parameter.measured": "%Inh", "recorded.value": 5}
{"smiles.data": "Cc1c(Cn2c(C)c(C)n3c(=O)cc(N4CCOCC4)nc23)cccc1C(F)(F)F", "parameter.measured": "%Inh", "recorded.value": 0}
{"smiles.data": "CC(C)c1ccc(O)cc1Nc1ccnc2ccc(C(F)(F)F)cc12", "parameter.measured": "%Inh", "recorded.value": 0}

* * *

System: RPS6KA5(Kin.Dom.2-C-terminal)
condition.notes: concentration: 1 μM, replicates: in singlicate; n = 1
parameter.measured: %Inh (%)

{"compound": "Fc1ccc(-c2nc3n(c2-c2ccncc2)CCS3)cc1", "reading.unit": "%", "recorded.value": 0}
{"compound": "COC(=O)C(Cc1ccccc1)NC(=O)NC1CCN(c2ccnc(Nc3ccc(F)cc3)n2)C1 (stereo not shown)", "reading.unit": "%", "recorded.value": 18}
{"compound": "CNC(=O)c1ccc(C)c(-n2c(C)cc(OCc3ccc(F)cc3F)c(Br)c2=O)c1", "reading.unit": "%", "recorded.value": 0}
{"compound": "Cc1ccccc1-c1cc(-c2c[nH]nc2-c2ccccn2)ccn1", "reading.unit": "%", "recorded.value": 0}
{"compound": "COc1ccc(CSc2nnc(-c3ccc4c(c3)CCO4)o2)cc1", "reading.unit": "%", "recorded.value": 1}
{"compound": "Cc1ccc(NC(=O)c2ccc(Cl)cc2)cc1-c1ccc(C(=O)Nc2ccncc2)cc1", "reading.unit": "%", "recorded.value": 49}
{"compound": "Cn1cncc1-c1cc2c(Nc3ccc(OCc4ccccc4)cc3)ncnc2cn1", "reading.unit": "%", "recorded.value": 0}
{"compound": "CCn1c(-c2c(N)noc2C)nc2cnccc21", "reading.unit": "%", "recorded.value": 23}
{"compound": "COc1ccc(CSc2nnc(-c3ccc4ncsc4c3)o2)cc1C(F)(F)F", "reading.unit": "%", "recorded.value": 10}
{"compound": "COc1ccc(Nc2nccc(N3CCC(NC(=O)c4cc5ccccc5s4)C3)n2)cc1 (stereo not shown)", "reading.unit": "%", "recorded.value": 0}
{"compound": "CC(C)c1ccc(O)cc1Nc1ccnc2ccc(C(F)(F)F)cc12", "reading.unit": "%", "recorded.value": 0}
{"compound": "Fc1ccc(-c2nn3cccc(F)c3c2-c2ccncc2)cc1", "reading.unit": "%", "recorded.value": 0}
{"compound": "O=C1NC(=O)C(c2ccc(Cl)cc2)=C1Nc1cccc(Cl)c1", "reading.unit": "%", "recorded.value": 0}
{"compound": "COC(=O)c1cccc(NC(=O)NC2CCN(c3ccnc(Nc4ccc(F)cc4)n3)C2)c1 (stereo not shown)", "reading.unit": "%", "recorded.value": 16}
{"compound": "O=C(Nc1n[nH]c2nc(-c3cccs3)c(Br)cc12)C1CCCC1", "reading.unit": "%", "recorded.value": 7}
{"compound": "CS(=O)(=O)CCNCc1nc(-c2ccc3ncnc(Nc4ccc(OCc5ccccc5)c(Cl)c4)c3c2)cs1.Cl", "reading.unit": "%", "recorded.value": 0}
{"compound": "Cc1ccccc1Cn1ccn2c(=O)cc(N3CCOCC3)nc12", "reading.unit": "%", "recorded.value": 0}
{"compound": "COc1cccc(CNC(=O)NC2CCN(c3ccnc(Nc4ccc(F)cc4)n3)C2)c1 (stereo not shown)", "reading.unit": "%", "recorded.value": 36}
{"compound": "COc1nccc(-c2c(-c3ccc(F)cc3)ncn2CCCN2CCOCC2)n1", "reading.unit": "%", "recorded.value": 0}

* * *

Tested on: NEK9
condition.notes: concentration: 1 μM, replicates: in singlicate; n = 1
parameter.measured: %Inh (%)

{"molecule": "COc1nccc(-c2c(-c3ccc(F)cc3)ncn2CCCN2CCOCC2)n1 [SB-282852]", "parameter.measured": "%Inh", "recorded.value": 0}
{"molecule": "Cc1cccc2c(-c3ccncn3)c(-c3ccc(F)cc3)nn12 [GW515532]", "parameter.measured": "%Inh", "recorded.value": 5}
{"molecule": "CCc1ccc(-c2ccc3c(c2)-c2n[nH]cc2S(=O)(=O)N3C)cc1", "parameter.measured": "%Inh", "recorded.value": 0}
{"molecule": "COc1ccc2cc(-c3nc(-c4ccccc4C(C)C)[nH]c3-c3ccncc3)ccc2c1 [SB-660566]", "parameter.measured": "%Inh", "recorded.value": 4}
{"molecule": "CC[C@@H]1CO[C@H](C(=O)Nc2ccccc2)CN1c1cc(-c2ccc3c(N)n[nH]c3c2)nc(NC)n1 [GSK2376236]", "parameter.measured": "%Inh", "recorded.value": 19}
{"molecule": "Cl.Cl.Cl.N#Cc1ccc(CCNc2nccc(-c3cccc(CN4CCNCC4)c3)n2)cc1 [GSK2137462]", "parameter.measured": "%Inh", "recorded.value": 27}
{"molecule": "CNCc1ccc2nc(NC(=O)c3ccc(C(C)(C)C)cc3)cn2c1", "parameter.measured": "%Inh", "recorded.value": 3}
{"molecule": "CN1c2ccc(-c3ccc(C(N)=O)cc3)cc2-c2[nH]ncc2S1(=O)=O", "parameter.measured": "%Inh", "recorded.value": 0}

* * *

Test system: OSR1
Construct: gene OXSR1
condition.notes: concentration: 1 μM, replicates: in singlicate; n = 1
I would appreciate it if you labelled entries 1 when %Inh is 10% or higher, otherwise -1.

{"smiles.data": "COc1nccc(-c2c(-c3ccc(F)cc3)ncn2CCCN2CCOCC2)n1", "assigned.label": -1}
{"smiles.data": "CC(C)c1cc(-c2ccc3c(N)n[nH]c3c2)nc(N)n1", "assigned.label": 1}
{"smiles.data": "c1ccc(-c2ccnc3[nH]ccc23)cc1", "assigned.label": 1}
{"smiles.data": "CN1c2ccc(-c3ccc(C(N)=O)cc3)cc2-c2[nH]ncc2S1(=O)=O", "assigned.label": -1}
{"smiles.data": "Cc1ccc(NC(=O)Nc2ccccc2)cc1-c1ccc(C(=O)Nc2ccncc2)cc1", "assigned.label": 1}
{"smiles.data": "Fc1ccc(-c2nc3n(c2-c2ccncc2)CCS3)cc1", "assigned.label": -1}

* * *

Reported values of %Inh for individual entries
Tested on: PAK3
condition.notes: concentration: 1 μM, replicates: in singlicate; n = 1
parameter.measured: %Inh (%)

{"molecule": "COc1ccc(Nc2nccc(NCCNC(=O)Nc3cc(C)ccc3C)n2)cc1", "reading.unit": "%", "recorded.value": 22}
{"molecule": "COc1ccc(Nc2nccc(N3CCC(NC(=O)C(C)c4ccc(Cl)cc4)CC3)n2)cc1 (centres unmarked)", "reading.unit": "%", "recorded.value": 47}
{"molecule": "COC(=O)C(NC(=O)NC1CCN(c2ccnc(Nc3ccc(F)cc3)n2)C1)c1ccccc1 (centres unmarked)", "reading.unit": "%", "recorded.value": 0}
{"molecule": "CNc1nc(-c2ccc3c(N)n[nH]c3c2)cc(N2C[C@@H](C(=O)Nc3ccccc3)CC[C@H]2C)n1", "reading.unit": "%", "recorded.value": 0}
{"molecule": "O=c1cc(N2CCOCC2)nc2n(Cc3cccc(Cl)c3Cl)c3ccccc3n12", "reading.unit": "%", "recorded.value": 42}
{"molecule": "Cn1cncc1C(=O)NC1CCN(c2ccnc(Nc3ccc(F)cc3)n2)C1 (centres unmarked)", "reading.unit": "%", "recorded.value": 0}
{"molecule": "Cc1ccc(NC(=O)c2ccc(Cl)cc2)cc1-c1ccc(C(=O)Nc2ccncc2)cc1", "reading.unit": "%", "recorded.value": 19}
{"molecule": "CCn1c(-c2c(N)noc2C)nc2cnccc21", "reading.unit": "%", "recorded.value": 3}

* * *

Test system: AMPK-alpha2
Construct: gene PRKAA2
condition.notes: concentration: 1 μM, replicates: in singlicate; n = 1
Reported values of %Inh for individual entries
parameter.measured: %Inh (%)

{"compound": "O=C(Nc1n[nH]c2nc(-c3cccs3)c(Br)cc12)C1CCCC1 [SB-743341]", "reading.unit": "%", "recorded.value": 40}
{"compound": "CSc1ccc(-c2nc3n(c2-c2ccncc2)CCC3)cc1 [SKF-105561]", "reading.unit": "%", "recorded.value": 0}
{"compound": "Cc1nccc(-c2c(-c3ccc(F)cc3)ncn2CCCN2CCOCC2)n1.Cl [SB-282975]", "reading.unit": "%", "recorded.value": 0}
{"compound": "COc1cc2ncnc(Nc3cccc(Br)c3)c2cc1OC.Cl [GI230329]", "reading.unit": "%", "recorded.value": 0}
{"compound": "COc1ccc(CSc2nnc(-c3ccc4nccn4c3)o2)cc1C(F)(F)F", "reading.unit": "%", "recorded.value": 9}
{"compound": "COc1ccc(Nc2nccc(N3CCC(NC(=O)C(C)c4ccc(Cl)cc4)C3)n2)cc1 (stereo not drawn) [GSK1379735]", "reading.unit": "%", "recorded.value": 21}
{"compound": "COc1ccc(Nc2nccc(-c3ccc(NC(=O)c4cc5cc(F)ccc5[nH]4)cc3)n2)cc1 [GSK1229496]", "reading.unit": "%", "recorded.value": 0}
{"compound": "Cn1cncc1-c1cc2c(Nc3ccc(OCc4ccccc4)cc3)ncnc2cn1 [GW281179]", "reading.unit": "%", "recorded.value": 0}
{"compound": "Cn1cnc2c(N)ncnc21 [SKF-97623]", "reading.unit": "%", "recorded.value": 0}
